assay.target: TAO1 (Homo sapiens)
Sequence (Q7L7X3 1-1001): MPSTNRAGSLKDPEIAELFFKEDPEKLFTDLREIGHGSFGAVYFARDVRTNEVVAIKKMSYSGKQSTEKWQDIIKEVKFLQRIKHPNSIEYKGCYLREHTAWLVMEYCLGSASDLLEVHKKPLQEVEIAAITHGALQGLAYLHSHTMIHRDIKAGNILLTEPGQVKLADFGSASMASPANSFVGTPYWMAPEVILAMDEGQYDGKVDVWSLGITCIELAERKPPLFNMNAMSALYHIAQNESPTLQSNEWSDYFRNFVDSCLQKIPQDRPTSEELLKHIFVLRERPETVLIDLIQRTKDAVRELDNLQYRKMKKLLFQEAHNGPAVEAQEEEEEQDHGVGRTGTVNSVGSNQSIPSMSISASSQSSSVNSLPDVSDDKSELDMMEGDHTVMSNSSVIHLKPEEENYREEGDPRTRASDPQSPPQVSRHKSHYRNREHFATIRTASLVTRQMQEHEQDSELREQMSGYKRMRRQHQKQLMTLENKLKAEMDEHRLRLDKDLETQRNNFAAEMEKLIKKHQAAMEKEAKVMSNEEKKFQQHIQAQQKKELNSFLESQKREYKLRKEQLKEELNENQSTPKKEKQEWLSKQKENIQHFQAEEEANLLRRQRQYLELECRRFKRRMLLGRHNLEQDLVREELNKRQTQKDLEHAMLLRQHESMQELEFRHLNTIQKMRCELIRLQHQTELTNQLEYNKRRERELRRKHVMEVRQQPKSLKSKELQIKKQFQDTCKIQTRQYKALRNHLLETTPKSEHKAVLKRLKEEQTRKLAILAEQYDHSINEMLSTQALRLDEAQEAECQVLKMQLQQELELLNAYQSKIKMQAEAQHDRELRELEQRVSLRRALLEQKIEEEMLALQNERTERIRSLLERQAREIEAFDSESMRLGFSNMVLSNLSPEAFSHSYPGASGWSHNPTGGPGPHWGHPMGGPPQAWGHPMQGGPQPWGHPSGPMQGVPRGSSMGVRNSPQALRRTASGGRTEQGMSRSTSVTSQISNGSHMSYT
assay: Kinase profiling (radiometric filter-binding)
Format: biochemical
run.conditions: TAO1, 1 µM inhibitor; read-out: Residual activity, %
Square brackets hold non-standard residues; d marks the D form. Peptide text beside a SMILES is read from it. * marks the point of attachment. X3 = O=C(CCCCCNCc1nc2c(sc3cc(Br)cnc32)c(=O)[nH]1)*
measured.quantity: remaining activity at 1 µM
Number first, unit second: that is the form wanted.

Measured remaining activity at 1 µM, N=C(N)NCCC[C@@H](NC(=O)CCCCCNCc1nc2c(sc3cc(Br)cnc32)c(=O)[nH]1)C(=O)N[C@H](CCCNC(=N)N)C(=O)N[C@H](CCCNC(=N)N)C(=O)N[C@H](CCCNC(=N)N)C(=O)N[C@H](CCCNC(=N)N)C(=O)N[C@H](CCCNC(=N)N)C(=O)N[C@H](CCCCN)C(N)=O [ARC-3126, BPTP-Ahx-(D-Arg)6-D-Lys-NH2] (X3-[dR][dR][dR][dR][dR][dR][dK]-NH2) : 95%

Measured remaining activity at 1 µM, N=C(N)NCCC[C@@H](NC(=O)CCCCCNC(=O)Cn1cnc2c(I)c(I)c(I)c(I)c21)C(=O)N[C@H](CCCNC(=N)N)C(=O)N[C@H](CCCNC(=N)N)C(=O)N[C@H](CCCNC(=N)N)C(=O)N[C@H](CCCNC(=N)N)C(=O)N[C@H](CCCNC(=N)N)C(=O)N[C@H](CCCCN)C(N)=O : 32%

Measured remaining activity at 1 µM, CN(C)c1ccc2c(c1)Oc1cc(N(C)C)ccc1C21OC(=O)c2cc(C(=O)NCCCC[C@@H](NC(=O)[C@@H](CCCNC(=N)N)NC(=O)CNC(=O)[C@@H](CCCNC(=N)N)NC(=O)[C@@H](CCCNC(=N)N)NC(=O)CCCCc3cn(Cc4nc5c(sc6ccc(Br)cc65)c(=O)[nH]4)nn3)C(N)=O)ccc21 : 80%

Measured remaining activity at 1 µM, N=C(N)NCCC[C@@H](NC(=O)CNC(=O)[C@@H](CCCNC(=N)N)NC(=O)[C@@H](CCCNC(=N)N)NC(=O)Cn1cc(CNCc2nc3c(sc4ccc(Br)cc43)c(=O)[nH]2)nn1)C(=O)N[C@H](CCCCN)C(N)=O : 80%

* * *

Test system: AMPK
assay: Kinase profiling (radiometric filter-binding)
Format: biochemical, human
run.conditions: 1 µM inhibitor
Square brackets hold non-standard residues; d marks the D form. Peptide text beside a SMILES is read from it. * marks the point of attachment. X3 = O=C(CCCCCNCc1nc2c(sc3cc(Br)cnc32)c(=O)[nH]1)*
For each record, write down the corresponding Residual activity, %.
Number first, unit second: that is the form wanted.

Measured Residual activity, %, N=C(N)NCCC[C@@H](NC(=O)CNC(=O)[C@@H](CCCNC(=N)N)NC(=O)[C@@H](CCCNC(=N)N)NC(=O)CCCCCCCNCc1nc2c(sc3cc(Br)cnc32)c(=O)[nH]1)C(=O)N[C@H](CCCCN)C(N)=O : 92 ± 9%

Measured Residual activity, %, N=C(N)NCCC[C@@H](NC(=O)CNC(=O)[C@@H](CCCNC(=N)N)NC(=O)[C@@H](CCCNC(=N)N)NC(=O)Cn1cc(CNCc2nc3c(sc4ccc(Br)cc43)c(=O)[nH]2)nn1)C(=O)N[C@H](CCCCN)C(N)=O : 47 ± 6%

Measured Residual activity, %, N=C(N)NCCC[C@@H](NC(=O)CCCCCNCc1nc2c(sc3cc(Br)cnc32)c(=O)[nH]1)C(=O)N[C@H](CCCNC(=N)N)C(=O)N[C@H](CCCNC(=N)N)C(=O)N[C@H](CCCNC(=N)N)C(=O)N[C@H](CCCNC(=N)N)C(=O)N[C@H](CCCNC(=N)N)C(=O)N[C@H](CCCCN)C(N)=O [ARC-3126, BPTP-Ahx-(D-Arg)6-D-Lys-NH2] (X3-[dR][dR][dR][dR][dR][dR][dK]-NH2) : 38 ± 4%

Measured Residual activity, %, N=C(N)NCCC[C@@H](NC(=O)CNC(=O)[C@@H](CCCNC(=N)N)NC(=O)[C@@H](CCCNC(=N)N)NC(=O)CCCCCCCNCc1nc2c(sc3ccc(Br)cc32)c(=O)[nH]1)C(=O)N[C@H](CCCCN)C(N)=O : 91 ± 4%

* * *

assay.target: ERK8 (Homo sapiens, UniProt Q8TD08)
Sequence (Q8TD08 1-544): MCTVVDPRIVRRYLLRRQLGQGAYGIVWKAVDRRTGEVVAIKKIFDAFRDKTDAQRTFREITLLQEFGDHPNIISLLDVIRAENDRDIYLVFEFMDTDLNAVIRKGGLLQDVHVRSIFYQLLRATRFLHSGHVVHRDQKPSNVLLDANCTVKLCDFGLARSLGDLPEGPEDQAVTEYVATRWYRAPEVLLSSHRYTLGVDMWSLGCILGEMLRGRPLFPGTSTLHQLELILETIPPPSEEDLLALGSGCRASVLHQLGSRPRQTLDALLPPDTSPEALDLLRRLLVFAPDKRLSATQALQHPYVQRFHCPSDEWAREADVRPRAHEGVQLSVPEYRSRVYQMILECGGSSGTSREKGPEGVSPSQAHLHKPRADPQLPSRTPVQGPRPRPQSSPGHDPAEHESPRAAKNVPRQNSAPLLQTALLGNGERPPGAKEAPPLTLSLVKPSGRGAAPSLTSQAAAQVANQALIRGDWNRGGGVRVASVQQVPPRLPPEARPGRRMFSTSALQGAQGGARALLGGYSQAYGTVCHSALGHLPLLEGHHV
assay: Kinase profiling (radiometric filter-binding)
Type: biochemical
run.conditions: ERK8, 1 µM inhibitor; read-out: Residual activity, %
Square brackets hold non-standard residues; d marks the D form. Peptide text beside a SMILES is read from it. * marks the point of attachment. X3 = O=C(CCCCCNCc1nc2c(sc3cc(Br)cnc32)c(=O)[nH]1)*
measured.quantity: remaining activity at 1 µM

Measured remaining activity at 1 µM, N=C(N)NCCC[C@@H](NC(=O)CNC(=O)[C@@H](CCCNC(=N)N)NC(=O)[C@@H](CCCNC(=N)N)NC(=O)CCCCCCCNCc1nc2c(sc3cc(Br)cnc32)c(=O)[nH]1)C(=O)N[C@H](CCCCN)C(N)=O [Compound 1, BPTP-Aoc-(D-Arg)2-Gly-D-Arg-D-Lys-NH2] : 109%

Measured remaining activity at 1 µM, N=C(N)NCCC[C@@H](NC(=O)CNC(=O)[C@@H](CCCNC(=N)N)NC(=O)[C@@H](CCCNC(=N)N)NC(=O)Cn1cc(CNCc2nc3c(sc4ccc(Br)cc43)c(=O)[nH]2)nn1)C(=O)N[C@H](CCCCN)C(N)=O [Compound 3, BBTP-Amt-(D-Arg)2-Gly-D-Arg-D-Lys-NH2] : 83%

Measured remaining activity at 1 µM, N=C(N)NCCC[C@@H](NC(=O)CCCCCNCc1nc2c(sc3cc(Br)cnc32)c(=O)[nH]1)C(=O)N[C@H](CCCNC(=N)N)C(=O)N[C@H](CCCNC(=N)N)C(=O)N[C@H](CCCNC(=N)N)C(=O)N[C@H](CCCNC(=N)N)C(=O)N[C@H](CCCNC(=N)N)C(=O)N[C@H](CCCCN)C(N)=O [ARC-3126, BPTP-Ahx-(D-Arg)6-D-Lys-NH2] (X3-[dR][dR][dR][dR][dR][dR][dK]-NH2) : 49%

Measured remaining activity at 1 µM, N=C(N)NCCC[C@@H](NC(=O)CNC(=O)[C@@H](CCCNC(=N)N)NC(=O)[C@@H](CCCNC(=N)N)NC(=O)CCCCCCCNCc1nc2c(sc3ccc(Br)cc32)c(=O)[nH]1)C(=O)N[C@H](CCCCN)C(N)=O [Compound 2, BBTP-Aoc-(D-Arg)2-Gly-D-Arg-D-Lys-NH2] : 78%

Measured remaining activity at 1 µM, N=C(N)NCCC[C@@H](NC(=O)CCCCCNC(=O)Cn1cnc2c(I)c(I)c(I)c(I)c21)C(=O)N[C@H](CCCNC(=N)N)C(=O)N[C@H](CCCNC(=N)N)C(=O)N[C@H](CCCNC(=N)N)C(=O)N[C@H](CCCNC(=N)N)C(=O)N[C@H](CCCNC(=N)N)C(=O)N[C@H](CCCCN)C(N)=O [ARC-3125, TIBI-CH2-C(=O)-Ahx-(D-Arg)6-D-Lys-NH2] : 18%

Entry source: paper PMC8307404
